# Lookup of reported EC50 keyed by entry
# target: T1, human epidermal growth factor receptor 3 (HER3) (human, UniProt P21860 20-1342)
# T1 construct: whole, on cells; also called ErbB3; Erbb3
# experimentNotes: flow cytometry on NCI-H358 cells

binder | EC50 / µg/mL
ADC 22B6-A-07-A-1 (antibody, human IgG1, kappa, V domains shown, drug-linker A-07-A on a cysteine sulfhydryl group; mainly 1 per light chain (LC-DAR1 ratio 0.998); drug-linker A-07-A on cysteine sulfhydryl groups after TCEP reduction; mainly 3 per heavy chain (HC-DAR3 ratio 0.966)) VH: EVHLVESGGGVVQPGRSLRLSCATSGFTFRSYGMHWVRQAPGKGLEWVAVIWYDGSNKYYADSVKGRFTISRDISKNTLYLQMNSLTAEDTAVYYCARYYYDSNGYYDAFDIWGQGTMVTVSS VL: DIQLTQSPSFLSASVGDRVTITCRASQGISNYLAWYQQKPGKAPKLLIFAASTLQSGVPSRFSGSGSGAEFTLTISSLEPEDFATYYCQQLNSYPITFGQGTRLEIKR | 0.0329
ADC 22B6-A-01 (antibody, human IgG1, kappa, V domains shown, drug-linker A-01 on a cysteine sulfhydryl group; LC-DAR1 ratio 0.990; drug-linker A-01 on cysteine sulfhydryl groups after TCEP reduction; mainly 3 per heavy chain (HC-DAR3 ratio 0.981)) VH: EVHLVESGGGVVQPGRSLRLSCATSGFTFRSYGMHWVRQAPGKGLEWVAVIWYDGSNKYYADSVKGRFTISRDISKNTLYLQMNSLTAEDTAVYYCARYYYDSNGYYDAFDIWGQGTMVTVSS VL: DIQLTQSPSFLSASVGDRVTITCRASQGISNYLAWYQQKPGKAPKLLIFAASTLQSGVPSRFSGSGSGAEFTLTISSLEPEDFATYYCQQLNSYPITFGQGTRLEIKR | 0.0445
